- Assay Method Text: Urinary excretion study in rats after oral NS, SF or CNS (LC–MS/MS)
- Format: in vivo
- Condition Set: rat urine, oral CNS 110 mg/kg, 24 h

Compound	Excretion amount (µg)
CC(C)=CCC[C@](C)(O[C@@H]1O[C@H](CO[C@@H]2O[C@H](CO)[C@@H](O)[C@H](O)[C@H]2O)[C@@H](O)[C@H](O)[C@H]1O)[C@H]1CC[C@]2(C)[C@@H]1[C@H](O)C[C@@H]1[C@@]3(C)CC[C@H](O[C@@H]4O[C@H](CO)[C@@H](O)[C@H](O)[C@H]4O[C@@H]4O[C@H](CO)[C@@H](O)[C@H](O)[C@H]4O)C(C)(C)[C@@H]3CC[C@]12C [ginsenoside Rb1]	0.388

* * *

- Assay Method Text: Fecal excretion study in rats after oral NS, SF or CNS (LC–MS/MS)
- Assay type: in vivo
- Condition Set: rat feces, oral CNS 110 mg/kg, 4 h
Endpoint Name: Accumulative excretion amount (µg)

Compound	Endpoint Name	Units Text	Test Result
CC(C)=CCC[C@](C)(O[C@@H]1O[C@H](CO[C@@H]2O[C@H](CO)[C@@H](O)[C@H](O)[C@H]2O)[C@@H](O)[C@H](O)[C@H]1O)[C@H]1CC[C@]2(C)[C@@H]1[C@H](O)C[C@@H]1[C@@]3(C)CC[C@H](O[C@@H]4O[C@H](CO)[C@@H](O)[C@H](O)[C@H]4O[C@@H]4O[C@H](CO)[C@@H](O)[C@H](O)[C@H]4O)C(C)(C)[C@@H]3CC[C@]12C [ginsenoside Rb1]	Accumulative excretion amount	µg	7.072

* * *

- Assay Method Text: Urinary excretion study in rats after oral NS, SF or CNS (LC–MS/MS)
- Assay type: in vivo
- Condition Set: rat urine, oral NS 60 mg/kg, 8 h
# Accumulative excretion percentage annotations
Endpoint Name: Accumulative excretion percentage (%)

Molecule	Units Text	Test Result
CC(C)=CCC[C@](C)(O[C@@H]1O[C@H](CO)[C@@H](O)[C@H](O)[C@H]1O)[C@H]1CC[C@]2(C)[C@@H]1[C@H](O)C[C@@H]1[C@@]3(C)CC[C@H](O)C(C)(C)[C@@H]3[C@@H](O[C@@H]3O[C@H](CO)[C@@H](O)[C@H](O)[C@H]3O[C@@H]3O[C@@H](C)[C@H](O)[C@@H](O)[C@H]3O)C[C@]12C [ginsenoside Re]	%	0.127
CC(C)=CCC[C@](C)(O[C@@H]1O[C@H](CO)[C@@H](O)[C@H](O)[C@H]1O)[C@H]1CC[C@]2(C)[C@@H]1[C@H](O)C[C@@H]1[C@@]3(C)CC[C@H](O)C(C)(C)[C@@H]3[C@@H](O[C@@H]3O[C@H](CO)[C@@H](O)[C@H](O)[C@H]3O)C[C@]12C [ginsenoside Rg1]	%	0.348
CC(C)=CCC[C@](C)(O[C@@H]1O[C@H](CO[C@@H]2O[C@H](CO)[C@@H](O)[C@H](O)[C@H]2O)[C@@H](O)[C@H](O)[C@H]1O)[C@H]1CC[C@]2(C)[C@@H]1[C@H](O)C[C@@H]1[C@@]3(C)CC[C@H](O[C@@H]4O[C@H](CO)[C@@H](O)[C@H](O)[C@H]4O[C@@H]4O[C@H](CO)[C@@H](O)[C@H](O)[C@H]4O)C(C)(C)[C@@H]3CC[C@]12C [ginsenoside Rb1]	%	0.021
CC(C)=CCC[C@](C)(O[C@@H]1O[C@H](CO)[C@@H](O)[C@H](O)[C@H]1O)[C@H]1CC[C@]2(C)[C@@H]1[C@H](O)C[C@@H]1[C@@]3(C)CC[C@H](O[C@@H]4O[C@H](CO)[C@@H](O)[C@H](O)[C@H]4O[C@@H]4O[C@H](CO)[C@@H](O)[C@H](O)[C@H]4O)C(C)(C)[C@@H]3CC[C@]12C [ginsenoside Rd]	%	0.011

* * *

- Assay Method Text: Urinary excretion study in rats after oral NS, SF or CNS (LC–MS/MS)
- Type: in vivo
- Condition Set: rat urine, oral CNS 110 mg/kg, 36 h
Endpoint Name: Accumulative excretion amount (µg)

Molecule	Endpoint Name	Test Result
CC(C)=CCC[C@](C)(O[C@@H]1O[C@H](CO[C@@H]2O[C@H](CO)[C@@H](O)[C@H](O)[C@H]2O)[C@@H](O)[C@H](O)[C@H]1O)[C@H]1CC[C@]2(C)[C@@H]1[C@H](O)C[C@@H]1[C@@]3(C)CC[C@H](O[C@@H]4O[C@H](CO)[C@@H](O)[C@H](O)[C@H]4O[C@@H]4O[C@H](CO)[C@@H](O)[C@H](O)[C@H]4O)C(C)(C)[C@@H]3CC[C@]12C [ginsenoside Rb1]	Accumulative excretion amount	1.056
CC(C)=CCC[C@](C)(O[C@@H]1O[C@H](CO)[C@@H](O)[C@H](O)[C@H]1O)[C@H]1CC[C@]2(C)[C@@H]1[C@H](O)C[C@@H]1[C@@]3(C)CC[C@H](O)C(C)(C)[C@@H]3[C@@H](O[C@@H]3O[C@H](CO)[C@@H](O)[C@H](O)[C@H]3O[C@@H]3O[C@@H](C)[C@H](O)[C@@H](O)[C@H]3O)C[C@]12C [ginsenoside Re]	Accumulative excretion amount	0.411
CC(C)=CCC[C@](C)(O[C@@H]1O[C@H](CO)[C@@H](O)[C@H](O)[C@H]1O)[C@H]1CC[C@]2(C)[C@@H]1[C@H](O)C[C@@H]1[C@@]3(C)CC[C@H](O[C@@H]4O[C@H](CO)[C@@H](O)[C@H](O)[C@H]4O[C@@H]4O[C@H](CO)[C@@H](O)[C@H](O)[C@H]4O)C(C)(C)[C@@H]3CC[C@]12C [ginsenoside Rd]	Accumulative excretion amount	0.114
CC(C)=CCC[C@](C)(O[C@@H]1O[C@H](CO)[C@@H](O)[C@H](O)[C@H]1O)[C@H]1CC[C@]2(C)[C@@H]1[C@H](O)C[C@@H]1[C@@]3(C)CC[C@H](O)C(C)(C)[C@@H]3[C@@H](O[C@@H]3O[C@H](CO)[C@@H](O)[C@H](O)[C@H]3O)C[C@]12C [ginsenoside Rg1]	Accumulative excretion amount	8.388

* * *

- Assay Method Text: Urinary excretion study in rats after oral NS, SF or CNS (LC–MS/MS)
- Format: in vivo
- Condition Set: rat urine, oral CNS 110 mg/kg, 6 h

Compound	Units Text	Excretion amount
CC(C)=CCC[C@](C)(O[C@@H]1O[C@H](CO)[C@@H](O)[C@H](O)[C@H]1O)[C@H]1CC[C@]2(C)[C@@H]1[C@H](O)C[C@@H]1[C@@]3(C)CC[C@H](O)C(C)(C)[C@@H]3[C@@H](O[C@@H]3O[C@H](CO)[C@@H](O)[C@H](O)[C@H]3O)C[C@]12C [ginsenoside Rg1]	µg	0.816

* * *

Measured Accumulative excretion amount values are reported for all entries that follow.
- Assay Method Text: Urinary excretion study in rats after oral NS, SF or CNS (LC–MS/MS)
- Type: in vivo
- Condition Set: rat urine, oral NS 60 mg/kg, 2 h

Compound	Accumulative excretion amount, µg
CC(C)=CCC[C@](C)(O[C@@H]1O[C@H](CO)[C@@H](O)[C@H](O)[C@H]1O)[C@H]1CC[C@]2(C)[C@@H]1[C@H](O)C[C@@H]1[C@@]3(C)CC[C@H](O)C(C)(C)[C@@H]3[C@@H](O[C@@H]3O[C@H](CO)[C@@H](O)[C@H](O)[C@H]3O[C@@H]3O[C@@H](C)[C@H](O)[C@@H](O)[C@H]3O)C[C@]12C [ginsenoside Re]	0.304
CC(C)=CCC[C@](C)(O[C@@H]1O[C@H](CO)[C@@H](O)[C@H](O)[C@H]1O)[C@H]1CC[C@]2(C)[C@@H]1[C@H](O)C[C@@H]1[C@@]3(C)CC[C@H](O[C@@H]4O[C@H](CO)[C@@H](O)[C@H](O)[C@H]4O[C@@H]4O[C@H](CO)[C@@H](O)[C@H](O)[C@H]4O)C(C)(C)[C@@H]3CC[C@]12C [ginsenoside Rd]	0.022
CC(C)=CCC[C@](C)(O[C@@H]1O[C@H](CO)[C@@H](O)[C@H](O)[C@H]1O)[C@H]1CC[C@]2(C)[C@@H]1[C@H](O)C[C@@H]1[C@@]3(C)CC[C@H](O)C(C)(C)[C@@H]3[C@@H](O[C@@H]3O[C@H](CO)[C@@H](O)[C@H](O)[C@H]3O)C[C@]12C [ginsenoside Rg1]	4.985
CC(C)=CCC[C@](C)(O[C@@H]1O[C@H](CO[C@@H]2O[C@H](CO)[C@@H](O)[C@H](O)[C@H]2O)[C@@H](O)[C@H](O)[C@H]1O)[C@H]1CC[C@]2(C)[C@@H]1[C@H](O)C[C@@H]1[C@@]3(C)CC[C@H](O[C@@H]4O[C@H](CO)[C@@H](O)[C@H](O)[C@H]4O[C@@H]4O[C@H](CO)[C@@H](O)[C@H](O)[C@H]4O)C(C)(C)[C@@H]3CC[C@]12C [ginsenoside Rb1]	0.075
